Source listed as patent US7482342B2.

Let's look at some compounds and their measured melting point.

Here's what some known entries look like.
{"Structure notation": "O=C(O)c1cccc(NC(=O)c2n[nH]c3ccccc23)c1", "melting point": "> 250 °C"}
{"Structure notation": "O=C(Nc1ccncc1)c1n[nH]c2ccc(I)cc12", "melting point": "> 260 °C"}
{"Structure notation": "O=C(Nc1ccncc1)c1n[nH]c2ccc([N+](=O)[O-])cc12", "melting point": "> 260 °C"}
{"Structure notation": "CCOC(=O)c1cccc(NC(=O)c2n[nH]c3ccccc23)c1", "melting point": "187 to 188 °C"}
{"Structure notation": "O=C(NCCCn1ccnc1)c1n[nH]c2ccccc12", "melting point": "154 to 155 °C"}

API: the following record is the query input.
Data request: Fill in: melting point of O=C(Nc1ccc(Nc2ccccc2)cc1)c1n[nH]c2ccccc12 is ___
Data returned: 218 °C
